Overview of recorded pIC50 for various molecules
# SYSTEM: MMP-1 (Homo sapiens)
# Construct: made in house; host or cells: transfected HT-1080 cells (provided by Dr. Harold Welgus, Washington University)
# Sequence (P03956 100-469): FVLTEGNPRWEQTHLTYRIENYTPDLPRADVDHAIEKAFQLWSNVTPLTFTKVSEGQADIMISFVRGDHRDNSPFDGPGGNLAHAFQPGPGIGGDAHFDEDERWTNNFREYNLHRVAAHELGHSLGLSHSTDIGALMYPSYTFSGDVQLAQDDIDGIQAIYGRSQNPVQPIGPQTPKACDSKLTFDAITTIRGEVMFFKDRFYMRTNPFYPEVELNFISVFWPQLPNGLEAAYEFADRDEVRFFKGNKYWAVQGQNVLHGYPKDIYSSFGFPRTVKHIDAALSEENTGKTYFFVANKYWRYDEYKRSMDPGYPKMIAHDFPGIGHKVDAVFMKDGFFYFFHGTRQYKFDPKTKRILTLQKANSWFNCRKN
# ASSAY_PROCEDURE: biochemical
# EXPERIMENTAL_CONTEXT: recombinant human MMP-1, MCA peptide substrate 4 μM, pH 7.5, room temperature; read-out: MMP-1 IC50
pIC50: −log10 of the molar value. Counter-ions that a name gives are not always drawn.

MOLECULE: O=C(NO)C1(S(=O)(=O)c2ccc(N3CCC(Cc4ccccc4)CC3)cc2)CCOCC1 [Example 720]
pIC50: < 5.00
//
MOLECULE: C=C(C)CC(=O)C1CCN(c2ccc(S(=O)(=O)C3(C(=O)NO)CCOCC3)cc2)CC1 [Example 759]
pIC50: < 5.00
//
MOLECULE: CN1CCN(CC(=O)N2CCC(C(=O)NO)(S(=O)(=O)c3ccc(Oc4ccc(C(F)(F)F)cc4)cc3)CC2)CC1 [Example 324]
pIC50: < 5.00
//
MOLECULE: O=C(Nc1ccc(Cl)c(Cl)c1)N1CCC(C(=O)NO)(S(=O)(=O)c2ccc(Oc3ccc(OC(F)(F)F)cc3)cc2)CC1 [Example 359]
pIC50: < 5.00
//
MOLECULE: O=C(NO)C1(S(=O)(=O)c2ccc(Oc3ccc(OC(F)(F)F)cc3)cc2)CCN(S(=O)(=O)c2ccccc2)CC1 [Example 194]
pIC50: < 5.14
//
MOLECULE: COCCN1CCC(C(=O)NO)(S(=O)(=O)c2ccc(Oc3ccc(-n4cncn4)cc3)cc2)CC1 [Example 262, Trihydrochloride]
pIC50: < 5.00
//
MOLECULE: CCOc1cccc(OC2CCN(c3ccc(S(=O)(=O)C4(C(=O)NO)CCOCC4)cc3)CC2)c1 [Example 640]
pIC50: < 5.00
//
MOLECULE: O=C(NO)C1(S(=O)(=O)c2ccc(N3CCN(S(=O)(=O)c4cccc(C(F)(F)F)c4)CC3)cc2)CCOCC1 [Example 676]
pIC50: < 5.00
//
MOLECULE: O=C(NO)C1(S(=O)(=O)c2ccc(N3CCC(OCc4ccccc4F)CC3)cc2)CCOCC1 [Example 576]
pIC50: < 5.00
//
MOLECULE: CCCNC(=O)C1CCN(c2ccc(S(=O)(=O)C3(C(=O)NO)CCOCC3)cc2)CC1 [Example 57]
pIC50: < 5.00
//
MOLECULE: O=C(Nc1ccc(F)cc1)OC1CCN(c2ccc(S(=O)(=O)C3(C(=O)NO)CCOCC3)cc2)CC1 [Example 191]
pIC50: < 5.00
//
MOLECULE: CN(C)Cc1ccc(COC2CCN(c3ccc(S(=O)(=O)C4(C(=O)NO)CCOCC4)cc3)CC2)cc1 [Example 566]
pIC50: < 5.00
//
MOLECULE: O=C(NO)C1(S(=O)(=O)c2ccc(N3CCN(c4cc(C(F)(F)F)ccn4)CC3)cc2)CCOCC1 [Example 534]
pIC50: < 5.00
//
MOLECULE: CC1CC(C)CN(C(=O)C2CCN(c3ccc(S(=O)(=O)C4(C(=O)NO)CCN(C(=O)CNCc5ccccn5)CC4)cc3)CC2)C1 (stereo not drawn) [Example 284]
pIC50: < 5.00
//
MOLECULE: O=C(NO)C1(S(=O)(=O)c2ccc(N3CC4CC3CN4Cc3ccccc3)cc2)CCOCC1 (stereo not drawn) [Example 493]
pIC50: < 5.00
